// data source = ChEMBL document CHEMBL1287651

// reported MIC per item
System: Pseudomonas aeruginosa
Test: Antibacterial activity against Pseudomonas aeruginosa ATCC 27853 after 18 to 24 hrs by twofold serial dilution method
Type: functional
Observation type: MIC

CCO/N=C1\CN(c2c(F)cc3c(=O)c(C(=O)O)cn(CC)c3c2F)CC1/C(N)=N\OCC (stereo not drawn): > 128 µg/mL
CCO/N=C(/N)C1CN(c2c(F)cc3c(=O)c(C(=O)O)cn(CC)c3c2F)C/C1=N\OC (stereo not drawn): > 128 µg/mL
CCO/N=C1\CN(c2nc3c(cc2F)c(=O)c(C(=O)O)cn3C2CC2)CC1/C(N)=N\O (stereo not drawn): > 128 µg/mL
